Entries annotated with measured IC50
Biological target: KRAS Q61H (Homo sapiens (Human), UniProt P01116+P62937, Q61H)
Sequence (P01116-2 other isoform, or with tags, fused parts or gaps Q61H): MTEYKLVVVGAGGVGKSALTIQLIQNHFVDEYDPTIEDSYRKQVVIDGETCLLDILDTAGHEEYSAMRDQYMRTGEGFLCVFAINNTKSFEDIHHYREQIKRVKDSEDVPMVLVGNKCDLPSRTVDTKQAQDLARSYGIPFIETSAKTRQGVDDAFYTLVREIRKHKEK
Sequence (P62937 whole entry): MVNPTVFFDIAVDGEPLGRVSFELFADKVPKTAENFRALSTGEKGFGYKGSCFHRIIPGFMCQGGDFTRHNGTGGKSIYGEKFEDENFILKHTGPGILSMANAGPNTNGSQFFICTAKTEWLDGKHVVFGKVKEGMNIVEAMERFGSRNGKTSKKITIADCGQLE
Assay: Ras-Raf (BRAF RBD) disruption / FRET / MOA assay, KRAS Q61H
Format: biochemical
Conditions: Ras-Raf disruption/FRET/MOA assay; class symbols; read-out: KRAS Q61H FRET data IC50

Consider the following illustrative entries.
INSERT INTO results (compound, reported_result) VALUES
  ('C=CC(=O)N(C)[C@H]1CN(C(=O)N(C)[C@H](C(=O)N[C@H]2Cc3nc(cs3)-c3ccc4c(c3)c(c(-c3cccnc3[C@H](C)OC)n4CC)CC(C)(C)COC(=O)[C@@H]3CCCN(N3)C2=O)C(C)C)C[C@@H]1F (atropisomer, axis not shown)', '0.1 to 1 µM'),
  ('C=CC(=O)N1CCN(C(=O)N(C)[C@H](C(=O)N[C@H]2Cc3nc(cs3)-c3ccc4c(c3)c(c(-c3cccnc3[C@H](C)OC)n4CC)CC(C)(C)COC(=O)[C@@H]3CCCN(N3)C2=O)C(C)C)CC1 (atropisomer, axis not shown) [Example A491]', '0.01 to 0.1 µM'),
  ('C=CC(=O)N1CC[C@H](C(=O)N(C)[C@H](C(=O)N[C@H]2Cc3cccc(c3)-c3ccc4c(c3)c(c(-c3cc(N5CCN(C)CC5)cnc3[C@H](C)OC)n4CC)CC(C)(C)COC(=O)[C@@H]3CCCN(N3)C2=O)C(C)C)C1 (single isomer, unassigned)', '0.1 to 1 µM');

// below: IC50 requested for another compound
Recorded result, C=CC(=O)N1CC[C@H](C(=O)N(C)[C@H](C(=O)N[C@H]2Cc3cc(O)cc(c3)-c3ccc4c(c3)c(c(C3=C(COC)CCCC3)n4CC)CC(C)(C)COC(=O)[C@@H]3CCCN(N3)C2=O)C(C)C)C1 , IC50: 0.1 to 1 µM
